subjectOfTest: Progesterone receptor (Oryctolagus cuniculus, UniProt P06186)
Sequence (P06186 whole entry): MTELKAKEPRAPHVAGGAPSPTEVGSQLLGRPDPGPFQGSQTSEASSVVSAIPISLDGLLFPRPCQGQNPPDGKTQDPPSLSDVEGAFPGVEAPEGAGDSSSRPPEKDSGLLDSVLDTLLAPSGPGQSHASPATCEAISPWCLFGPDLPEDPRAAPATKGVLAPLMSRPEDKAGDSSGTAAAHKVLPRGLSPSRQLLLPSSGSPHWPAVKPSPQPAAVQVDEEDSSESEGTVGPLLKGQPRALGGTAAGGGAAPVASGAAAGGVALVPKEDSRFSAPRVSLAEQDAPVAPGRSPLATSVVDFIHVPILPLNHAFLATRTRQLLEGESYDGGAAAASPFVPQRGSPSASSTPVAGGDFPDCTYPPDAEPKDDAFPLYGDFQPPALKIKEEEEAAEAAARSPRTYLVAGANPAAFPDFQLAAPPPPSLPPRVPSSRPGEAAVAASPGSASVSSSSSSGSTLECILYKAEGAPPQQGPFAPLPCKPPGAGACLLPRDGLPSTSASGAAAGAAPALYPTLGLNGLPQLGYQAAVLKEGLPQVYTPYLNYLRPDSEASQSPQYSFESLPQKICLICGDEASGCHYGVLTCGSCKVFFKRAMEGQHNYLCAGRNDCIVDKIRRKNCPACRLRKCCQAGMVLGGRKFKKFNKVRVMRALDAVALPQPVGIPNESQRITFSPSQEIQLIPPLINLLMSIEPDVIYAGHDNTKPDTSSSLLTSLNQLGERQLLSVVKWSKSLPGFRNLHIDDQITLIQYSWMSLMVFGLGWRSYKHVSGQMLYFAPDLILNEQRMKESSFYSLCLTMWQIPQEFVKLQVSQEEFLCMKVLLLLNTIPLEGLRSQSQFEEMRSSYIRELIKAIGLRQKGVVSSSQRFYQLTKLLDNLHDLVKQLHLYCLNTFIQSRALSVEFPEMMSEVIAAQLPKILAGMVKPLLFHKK
pIC50: −log10 of the molar value.
experimentalReadout: pIC50

**Q:** Please look up its pIC50: O=S(=O)(NNCC1=NN(c2ccc(F)cc2)C2C(Cc3cccc4ccccc34)CCCC12)c1ccccc1 (stereo unspecified)
**A:** < 5.00
